biological target: KDAC3/NCOR2 (histone deacetylase 3/nuclear receptor corepressor 2 complex) (Homo sapiens, UniProt O15379); assay: Inhibition of full length human C-terminal His-tagged KDAC3/N-terminal GST-tagged human NCOR2 (395 to 489 residues) expressed in baculovirus expression system at 30 uM using FITC-p53 acetylated peptide as substrate after 60 mins by microfluidic assay; details: probe FITC-p53 acetylated peptide
Sequence (O15379 whole entry, the tested form may be a part): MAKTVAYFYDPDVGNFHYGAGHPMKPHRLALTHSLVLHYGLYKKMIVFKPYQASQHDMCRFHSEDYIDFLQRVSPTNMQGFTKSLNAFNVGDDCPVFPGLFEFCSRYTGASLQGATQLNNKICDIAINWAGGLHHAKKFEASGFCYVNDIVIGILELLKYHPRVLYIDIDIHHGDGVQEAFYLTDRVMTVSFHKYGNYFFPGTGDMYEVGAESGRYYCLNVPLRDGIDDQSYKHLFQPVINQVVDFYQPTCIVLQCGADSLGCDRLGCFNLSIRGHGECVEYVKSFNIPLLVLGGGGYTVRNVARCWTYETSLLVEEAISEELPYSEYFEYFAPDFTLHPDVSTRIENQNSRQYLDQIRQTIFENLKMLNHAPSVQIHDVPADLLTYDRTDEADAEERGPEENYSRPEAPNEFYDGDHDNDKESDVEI
Sequence (Q9Y618 whole entry, further chain, the tested form may be a part): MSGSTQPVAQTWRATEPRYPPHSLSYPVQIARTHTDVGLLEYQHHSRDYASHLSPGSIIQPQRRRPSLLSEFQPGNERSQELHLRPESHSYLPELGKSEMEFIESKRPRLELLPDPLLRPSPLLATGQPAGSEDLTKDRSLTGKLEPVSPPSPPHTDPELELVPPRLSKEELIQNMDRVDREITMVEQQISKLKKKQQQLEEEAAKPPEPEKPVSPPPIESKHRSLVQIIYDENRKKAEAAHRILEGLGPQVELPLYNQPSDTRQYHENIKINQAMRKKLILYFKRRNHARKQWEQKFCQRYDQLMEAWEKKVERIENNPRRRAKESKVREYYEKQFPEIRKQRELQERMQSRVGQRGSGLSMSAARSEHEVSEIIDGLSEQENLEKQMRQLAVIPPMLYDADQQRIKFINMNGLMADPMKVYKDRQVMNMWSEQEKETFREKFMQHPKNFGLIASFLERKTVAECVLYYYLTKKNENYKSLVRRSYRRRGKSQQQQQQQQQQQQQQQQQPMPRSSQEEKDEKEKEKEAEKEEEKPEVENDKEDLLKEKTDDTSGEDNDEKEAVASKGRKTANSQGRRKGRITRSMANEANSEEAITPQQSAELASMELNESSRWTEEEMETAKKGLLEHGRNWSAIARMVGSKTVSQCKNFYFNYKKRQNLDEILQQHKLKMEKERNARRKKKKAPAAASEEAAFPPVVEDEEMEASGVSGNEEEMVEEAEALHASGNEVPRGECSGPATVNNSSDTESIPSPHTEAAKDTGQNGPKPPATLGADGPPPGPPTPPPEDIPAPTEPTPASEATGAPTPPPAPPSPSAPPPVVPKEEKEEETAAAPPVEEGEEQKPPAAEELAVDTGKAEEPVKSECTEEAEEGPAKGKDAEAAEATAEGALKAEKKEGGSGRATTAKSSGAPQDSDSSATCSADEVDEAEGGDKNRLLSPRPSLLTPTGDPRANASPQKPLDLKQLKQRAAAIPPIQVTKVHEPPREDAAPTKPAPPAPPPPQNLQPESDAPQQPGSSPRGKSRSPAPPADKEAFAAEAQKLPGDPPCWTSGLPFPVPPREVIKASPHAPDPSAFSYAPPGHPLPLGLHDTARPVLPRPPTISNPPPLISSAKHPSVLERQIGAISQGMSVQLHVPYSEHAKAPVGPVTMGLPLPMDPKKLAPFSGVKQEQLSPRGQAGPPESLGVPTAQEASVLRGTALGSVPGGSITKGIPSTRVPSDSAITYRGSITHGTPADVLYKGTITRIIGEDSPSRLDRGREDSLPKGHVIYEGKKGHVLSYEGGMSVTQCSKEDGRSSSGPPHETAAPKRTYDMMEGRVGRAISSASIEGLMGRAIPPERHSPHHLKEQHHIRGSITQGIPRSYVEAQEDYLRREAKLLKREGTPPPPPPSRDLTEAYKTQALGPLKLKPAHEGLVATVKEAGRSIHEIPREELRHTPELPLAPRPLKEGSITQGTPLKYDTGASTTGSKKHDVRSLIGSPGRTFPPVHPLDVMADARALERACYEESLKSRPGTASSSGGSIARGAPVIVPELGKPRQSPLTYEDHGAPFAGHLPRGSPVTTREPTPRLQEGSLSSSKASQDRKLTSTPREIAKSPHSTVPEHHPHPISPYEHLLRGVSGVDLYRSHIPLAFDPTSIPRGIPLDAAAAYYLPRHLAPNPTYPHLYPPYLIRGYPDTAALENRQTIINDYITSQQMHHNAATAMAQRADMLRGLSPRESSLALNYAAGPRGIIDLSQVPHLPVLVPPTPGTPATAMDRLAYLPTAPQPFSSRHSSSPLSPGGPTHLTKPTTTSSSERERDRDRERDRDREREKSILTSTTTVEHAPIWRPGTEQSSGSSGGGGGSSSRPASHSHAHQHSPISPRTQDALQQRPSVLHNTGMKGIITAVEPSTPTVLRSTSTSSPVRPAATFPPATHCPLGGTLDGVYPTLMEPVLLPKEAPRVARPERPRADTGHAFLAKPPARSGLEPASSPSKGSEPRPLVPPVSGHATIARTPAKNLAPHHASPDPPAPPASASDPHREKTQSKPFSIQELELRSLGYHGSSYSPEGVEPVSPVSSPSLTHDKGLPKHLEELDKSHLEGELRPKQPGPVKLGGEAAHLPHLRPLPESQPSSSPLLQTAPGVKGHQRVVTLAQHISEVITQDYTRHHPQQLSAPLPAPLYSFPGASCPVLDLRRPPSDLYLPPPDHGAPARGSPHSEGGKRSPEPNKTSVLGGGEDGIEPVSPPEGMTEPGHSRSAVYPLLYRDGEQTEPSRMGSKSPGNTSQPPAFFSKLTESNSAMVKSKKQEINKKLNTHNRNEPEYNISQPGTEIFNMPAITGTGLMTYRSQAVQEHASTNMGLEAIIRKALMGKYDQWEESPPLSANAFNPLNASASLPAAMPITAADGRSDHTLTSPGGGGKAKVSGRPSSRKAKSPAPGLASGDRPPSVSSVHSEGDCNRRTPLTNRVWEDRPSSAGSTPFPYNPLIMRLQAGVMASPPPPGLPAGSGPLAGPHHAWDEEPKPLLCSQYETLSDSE
Category key, based on recorded inhibition at 1 h, 30 µM: lower band = under 3%, central band = from 3% up to 7%, upper band = 7% and over

> print(dat)
                                    molecule    class.name
 1          O=C1c2ccccc2C2=C3C(O)=NN=C3CCN12    lower band
 2  COC(=O)CC1(C(=O)OC)Nc2cc(Cl)c(Cl)cc2S(=O)(=O)N1 (stereo not given)  central band
 3  O=C(O)Cc1ccc(/N=N/c2c(O)c(C(=O)O)cc3ccccc23)cc1    lower band
 4         O=C1Nc2cc(Cl)c(Cl)cc2S(=O)(=O)N1O    lower band
 5                   Cc1ccc(Nc2nnc(S)s2)cc1F    lower band
 6  CC1=CC(C)(C)N=C(S)N1c1cccc2cc(S(=O)(=O)O)ccc12    lower band
 7       CCOC(=O)CSc1nc2nc(Cl)c(Cl)[nH]c-2n1    upper band
 8  FC(F)(F)c1cccc(OCC2CN=C(S)O2)c1 (stereo not given)  central band
 9     CCOC(=O)Cc1cc(=O)[nH]n(-c2ccccc2)c1=O    lower band
10  O=C(Nc1cccc([N+](=O)[O-])c1)c1ccc2ccccc2c1O    upper band
11              Nc1cc(Cl)c(Cl)cc1S(=O)(=O)NO  central band
12  NS(=O)(=O)c1ccc(Nc2ccccc2)c([N+](=O)[O-])c1    lower band
13  CCOC(=O)c1cc2c(OC)c(OC)ccc2c2ncc(C#N)c(O)c12    lower band
14  COc1ccc([N+](=O)[O-])cc1NS(=O)(=O)c1ccc(C)cc1    upper band
15    NC(=O)c1ccccc1OCC(=O)Nc1ccc(Cl)c(Cl)c1  central band
16  CSC1=NC=C(C#N)C2=NC(c3ccc(Cl)cc3)NN12 (stereo not given)    upper band
17  CC1=NN(c2ccccc2)C(=O)C1/N=N/c1ccc(S(N)(=O)=O)cc1 (stereo not given)  central band
18                    CSc1nc(O)nnc1Sc1ccccc1    upper band
19    O=C1CSC(=S)N1/N=C/c1c[nH]c2ccc(Br)cc12    upper band
